The origin of these recorded values is patent US20250034171A1.

Task for the reader: assign each of the following compounds its reported Metabolic Stability Half life (human, min.).
Test: Metabolic stability in liver microsomes (intrinsic clearance)
Type: in vitro ADME
Details: human, microsomes
Use h as the unit, but write only the number.

Name the recorded Metabolic Stability Half life (human, min.) of the item CCc1nc2ncc(C)cn2c1C(=O)NCc1ccc(-c2nc3n(n2)CCC(C(F)(F)F)C3)cc1 (single isomer, unassigned) in your answer.
2.97

Name the recorded Metabolic Stability Half life (human, min.) of the item CCc1nc2ncc(C)cn2c1C(=O)NCc1ccc(-c2cn3c(n2)CC(C(F)(F)F)CC3)cc1 (single isomer, unassigned) in your answer.
0.887
